- TEST_SYSTEM: Neuronal acetylcholine receptor subunit alpha-7 (Rattus norvegicus)
- TEST_DESCRIPTION: Displacement of [3H]MLA from alpha-7 nAChR expressed in rat brain membrane at 100 nM

>  <STRUCTURE_AS_SMILES>
Cc1cc[n+](CCCCCc2ccccc2CCCCC[n+]2ccc(C)cc2)cc1

>  <inhibition (%)>
3.1

$$$$
>  <STRUCTURE_AS_SMILES>
Cc1ccc[n+](CCCCCc2cccc(CCCCC[n+]3cccc(C)c3)c2)c1

>  <inhibition (%)>
6.24

$$$$
>  <STRUCTURE_AS_SMILES>
Cc1ccc[n+](CCCCCCCCCCCC[n+]2cccc(C)c2)c1

>  <inhibition (%)>
0

$$$$
>  <STRUCTURE_AS_SMILES>
Cc1cc[n+](CCCC#Cc2cccc(C#CCCC[n+]3ccc(C)cc3)c2)cc1

>  <inhibition (%)>
6.4

$$$$
>  <STRUCTURE_AS_SMILES>
Cc1cc[n+](CCCCCc2cccc(CCCCC[n+]3ccc(C)cc3)c2)cc1

>  <inhibition (%)>
3.5

$$$$

====

Property: inhibition; scope: individual compounds
- TEST_SYSTEM: Neuronal acetylcholine receptor; alpha4/beta2 (Rattus norvegicus) (UniProt P09483+P12390)
- TEST_DESCRIPTION: Displacement of [3H]NIC from alpha-4-beta-2 nAChR expressed in rat brain membrane at 100 nM

>  <STRUCTURE_AS_SMILES>
Cc1cccc[n+]1CCCCCc1cccc(CCCCC[n+]2ccccc2C)c1

>  <TEST_SYSTEM>
Neuronal acetylcholine receptor; alpha4/beta2 (Rattus norvegicus) (UniProt P09483+P12390)

>  <inhibition (%)>
7.2

$$$$
>  <STRUCTURE_AS_SMILES>
Cc1cccc[n+]1CCCC#Cc1cccc(C#CCCC[n+]2ccccc2C)c1

>  <TEST_SYSTEM>
Neuronal acetylcholine receptor; alpha4/beta2 (Rattus norvegicus) (UniProt P09483+P12390)

>  <inhibition (%)>
1.9

$$$$
>  <STRUCTURE_AS_SMILES>
Cc1cccc[n+]1CCCC#Cc1ccccc1C#CCCC[n+]1ccccc1C

>  <TEST_SYSTEM>
Neuronal acetylcholine receptor; alpha4/beta2 (Rattus norvegicus) (UniProt P09483+P12390)

>  <inhibition (%)>
2.1

$$$$
>  <STRUCTURE_AS_SMILES>
Cc1cccc[n+]1CCCCCc1ccccc1CCCCC[n+]1ccccc1C

>  <TEST_SYSTEM>
Neuronal acetylcholine receptor; alpha4/beta2 (Rattus norvegicus) (UniProt P09483+P12390)

>  <inhibition (%)>
0

$$$$
>  <STRUCTURE_AS_SMILES>
Cc1ccc[n+](CCCC#Cc2ccccc2C#CCCC[n+]2cccc(C)c2)c1

>  <TEST_SYSTEM>
Neuronal acetylcholine receptor; alpha4/beta2 (Rattus norvegicus) (UniProt P09483+P12390)

>  <inhibition (%)>
3.9

$$$$
>  <STRUCTURE_AS_SMILES>
Cc1cc[n+](CCCCCc2ccccc2CCCCC[n+]2ccc(C)cc2)cc1

>  <TEST_SYSTEM>
Neuronal acetylcholine receptor; alpha4/beta2 (Rattus norvegicus) (UniProt P09483+P12390)

>  <inhibition (%)>
0

$$$$
>  <STRUCTURE_AS_SMILES>
Cc1ccc[n+](CCCCCCCCCCCC[n+]2cccc(C)c2)c1

>  <TEST_SYSTEM>
Neuronal acetylcholine receptor; alpha4/beta2 (Rattus norvegicus) (UniProt P09483+P12390)

>  <inhibition (%)>
0

$$$$
>  <STRUCTURE_AS_SMILES>
CN1CCC[C@H]1c1ccc[n+](CCCCc2ccc(CCCC[n+]3cccc([C@@H]4CCCN4C)c3)cc2)c1

>  <TEST_SYSTEM>
Neuronal acetylcholine receptor; alpha4/beta2 (Rattus norvegicus) (UniProt P09483+P12390)

>  <inhibition (%)>
3.66

$$$$
